system_tested: T1, recombinant human IGF-II (Insulin-like Growth Factor II) (human, UniProt P01344 25-91, biotinylated (Biotinyl-IGF-II, GroPep) where immobilised in SPR, site not stated; not biotinylated in ITC and as SPR analyte)
T1 construct: also called IGF2; IGF-2
experiment_description: SPR (Biacore)
pKd: −log10 of the molar value.
quantity_name: pKd

binder | result
IGF2R domain 11 Q1569A (amino acids 1511-1650, C-terminal His6 tag, from Pichia pastoris) (receptor) NEHDDCQVTNPSTGHLFDLSSLSGRAGFTAAYSEKGLVYMSICGENENCPPGVGACFGATRISVGKANKRLRYVDQVLQLVYKDGSPCPSKSGLSYKSVISFVCRPEAGPTNRPMLISLDKQTCTLFFSWHTPLACEQATHHHHHH | 6.89
IGF2R domain 11 E1544A (amino acids 1511-1650, C-terminal His6 tag, from Pichia pastoris) (receptor) NEHDDCQVTNPSTGHLFDLSSLSGRAGFTAAYSAKGLVYMSICGENENCPPGVGACFGQTRISVGKANKRLRYVDQVLQLVYKDGSPCPSKSGLSYKSVISFVCRPEAGPTNRPMLISLDKQTCTLFFSWHTPLACEQATHHHHHH | 7.43
IGF2R domain 11 E1544K (amino acids 1511-1650, C-terminal His6 tag, from Pichia pastoris) (receptor, also called enhanced mutant) NEHDDCQVTNPSTGHLFDLSSLSGRAGFTAAYSKKGLVYMSICGENENCPPGVGACFGQTRISVGKANKRLRYVDQVLQLVYKDGSPCPSKSGLSYKSVISFVCRPEAGPTNRPMLISLDKQTCTLFFSWHTPLACEQATHHHHHH | 7.77
